Molecular target: recombinant soluble homotrimeric HA of A/Netherlands/219/03 (H7N7) (Influenza A virus A/Netherlands/219/03(H7N7))
Experiment: trimeric HA microarray, transfection supernatant set 3
Conditions: remark: other sources report otherwise
property label: log10(Trimeric HA Binding: RLU) (log10 of the value in RLU)

>  <binder>
TCN-523 (5248_A17) (antibody, V domains shown) VH: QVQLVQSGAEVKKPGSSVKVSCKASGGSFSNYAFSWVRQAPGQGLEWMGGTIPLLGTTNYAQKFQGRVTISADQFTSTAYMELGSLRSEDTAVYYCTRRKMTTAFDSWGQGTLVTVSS VL: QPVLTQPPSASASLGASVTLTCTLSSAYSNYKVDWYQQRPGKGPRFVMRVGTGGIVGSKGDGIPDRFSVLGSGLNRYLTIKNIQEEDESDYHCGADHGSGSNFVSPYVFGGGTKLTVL

>  <property label>
log10(Trimeric HA Binding: RLU)

>  <readout number>
3.50

$$$$
>  <binder>
TCN-530 (5248_H10a) (antibody, V domains shown) VH: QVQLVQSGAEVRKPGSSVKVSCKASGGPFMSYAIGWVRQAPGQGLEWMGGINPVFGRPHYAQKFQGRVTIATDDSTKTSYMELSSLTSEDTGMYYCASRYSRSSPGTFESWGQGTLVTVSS VL: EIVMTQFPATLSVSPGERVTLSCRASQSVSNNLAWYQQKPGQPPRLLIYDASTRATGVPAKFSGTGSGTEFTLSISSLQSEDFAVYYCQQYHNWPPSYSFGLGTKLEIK

>  <property label>
log10(Trimeric HA Binding: RLU)

>  <readout number>
2.07

$$$$
>  <binder>
TCN-504 (3251_K17) (antibody, V domains shown) VH: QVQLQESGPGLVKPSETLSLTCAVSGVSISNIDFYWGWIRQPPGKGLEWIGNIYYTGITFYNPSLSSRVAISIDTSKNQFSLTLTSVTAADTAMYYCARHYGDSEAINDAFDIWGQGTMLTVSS VL: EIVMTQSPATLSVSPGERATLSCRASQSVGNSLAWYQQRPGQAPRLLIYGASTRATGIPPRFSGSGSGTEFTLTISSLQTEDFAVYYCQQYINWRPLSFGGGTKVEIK

>  <property label>
log10(Trimeric HA Binding: RLU)

>  <readout number>
4.29

$$$$
>  <binder>
TCN-531 (5091_H13) (antibody, V domains shown) VH: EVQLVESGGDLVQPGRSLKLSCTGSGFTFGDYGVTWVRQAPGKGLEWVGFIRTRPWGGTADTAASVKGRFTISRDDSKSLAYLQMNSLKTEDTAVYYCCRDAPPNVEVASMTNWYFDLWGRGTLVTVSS VL: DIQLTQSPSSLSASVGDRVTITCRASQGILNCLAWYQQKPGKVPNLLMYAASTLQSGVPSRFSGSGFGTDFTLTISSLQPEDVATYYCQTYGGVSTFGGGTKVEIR

>  <property label>
log10(Trimeric HA Binding: RLU)

>  <readout number>
2.58

$$$$
>  <binder>
TCN-532 (5262_H18) (antibody, V domains shown) VH: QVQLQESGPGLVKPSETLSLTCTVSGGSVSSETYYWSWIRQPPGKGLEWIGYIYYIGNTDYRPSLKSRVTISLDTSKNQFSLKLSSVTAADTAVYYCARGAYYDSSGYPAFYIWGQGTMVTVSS VL: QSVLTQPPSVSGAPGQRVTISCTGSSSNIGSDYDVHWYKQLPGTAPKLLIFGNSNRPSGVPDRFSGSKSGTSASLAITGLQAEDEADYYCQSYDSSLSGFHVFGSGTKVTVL

>  <property label>
log10(Trimeric HA Binding: RLU)

>  <readout number>
1.62

$$$$

Source of measurements: patent US20150086555A1
